# TEST DESCRIPTION: chemical genetic growth profiling, strain panel (AID 1159580);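 further: tested at 20 µM; growth read once vehicle control cultures reached saturation at 30 °C; 1 = growth at the plate median or of vehicle wells; lower values mean less growth of the strain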
# EXPERIMENTAL PARAMETERS: S. cerevisiae deletion strains, growth OD, locus YBR160W, strain CDC28, stronger effect = lower value
Hit rate of the full screen: of about 5,500 compounds, about 2,000 (36%) were called active. Roughly 18% stayed inconclusive and do not appear here. The list shows a part of the results.
MEASURE NAME: normalized growth
Give the figure only, with no unit attached.

Reference set, count: 3
INSERT INTO results (mol_smiles, measure_name, measured_result) VALUES
  ('CC(=O)ON=C1c2cc([N+](=O)[O-])ccc2-c2ccc([N+](=O)[O-])cc21', 'normalized growth', 0.955),
  ('ClC1=C(C=Nc2ccc(Cl)cc2)CSc2ccc(Cl)cc21', 'normalized growth', 0.937),
  ('Cc1cccc(NC(=S)NNC(=O)CSCc2cccc3ccccc23)c1', 'normalized growth', 1);

Next:
Challenge: Quickly give me recorded normalized growth for `Cc1onc(-c2c(F)cccc2Cl)c1C(=O)NNc1cc(Cl)cc(Cl)c1`
Response given: 0.976

---

# TEST DESCRIPTION: chemical genetic growth profiling, strain panel (AID 1159580);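 further: tested at 20 µM; growth read once vehicle control cultures reached saturation at 30 °C; 1 = growth at the plate median or of vehicle wells; lower values mean less growth of the strain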
# EXPERIMENTAL PARAMETERS: S. cerevisiae deletion strains, growth OD, locus YDL028C, strain MPS1, stronger effect = lower value
In all, about 5,500 compounds went through this assay and about 2,000 (36%) were called active. Another 18% or so got no clear call; they are omitted. Some of the results follow.
MEASURE NAME: normalized growth
Answer as a number with no unit attached.

Study these solved cases before continuing.
INSERT INTO measurements (compound, measured_result) VALUES
  ('Cc1onc(-c2c(Cl)cccc2Cl)c1C(=O)NNc1c(Cl)cccc1Cl', 0.97),
  ('OC(CN1CCN(c2nc3ccc(Cl)cc3s2)CC1)Cn1ccc2ccccc21 (stereo not drawn)', 0.99);

Challenge: Answer with the recorded normalized growth for the compound listed here: `Cc1cccc(NC(=S)NNC(=O)CSCc2cccc3ccccc23)c1`
Response given: 0.984

---

We begin with a simple list: items and their reported normalized growth.
# TEST DESCRIPTION: chemical genetic growth profiling, strain panel (AID 1159580);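 further: tested at 20 µM; growth read once vehicle control cultures reached saturation at 30 °C; 1 = growth at the plate median or of vehicle wells; lower values mean less growth of the strain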
# EXPERIMENTAL PARAMETERS: S. cerevisiae deletion strains, growth OD, locus YDR069C, strain doa4, stronger effect = lower value
Structures can show the parent of a compound that is named as a salt. The whole screen tested about 5,500 compounds, of which about 2,000 (36%) were called active. About 18% were inconclusive and are not listed. The list shows a part of the results. Where a SMILES comes first, the peptide text is derived from it. The star is where a group is joined. Tfa = O=C(C(F)(F)F)*
Please give only the number in your answer, with no unit.

INSERT INTO measurements (compound, measured_result) VALUES
  ('CC(C)NCC(O)COc1cccc2ccccc12 (configuration not stated)', 1.01),
  ('Cc1c(S(=O)(=O)O)oc2c1C(=O)C(=O)c1c-2ccc2c1CCCC2(C)C', 0.874),
  ('Cc1coc2c1C(=O)C(=O)c1c-2ccc2c1CCCC2(C)C', 0.925),
  ('CCOC(=O)Nc1nc2ccccc2[nH]1', 0.902),
  ('CO/N=C(\C(=O)N[C@@H]1C(=O)N2C(C(=O)O)=C(CSc3nc(=O)c(O)nn3C)CS[C@H]12)c1csc(N)n1', 1),
  ('CC(C(=O)O)c1ccc(C(=O)c2cccs2)cc1 (configuration not stated)', 0.994),
  ('C[C@H]1COC2=C1C(=O)C(=O)c1c2ccc2c1CCCC2(C)C', 0.868),
  ('CC(C)NCC(O)c1cc(O)cc(O)c1 (configuration not stated)', 1.01);

Challenge: Report normalized growth for CC(C)C(NC(=O)C(Cc1ccc(O)cc1)NC(=O)C(NC(=O)C(F)(F)F)C(C)C)C(=O)O (stereo not drawn) (Tfa-Val-Tyr-Val-OH; configuration not given here)
Response given: 0.984

Challenge: Could you please provide reported normalized growth for COC(=O)C(O)c1ccccc1 (configuration not stated) ? Thanks!
Response given: 0.996

Challenge: Return normalized growth (reported value) for this compound: COC(=O)C(C)c1ccc(C(=O)c2cccs2)cc1 (configuration not stated)
Response given: 1.02

Challenge: Read the entry `CC[N+](CC)(CC)CCOc1cccc(OCC[N+](CC)(CC)CC)c1OCC[N+](CC)(CC)CC` and write its reported normalized growth.
Response given: 0.999
